Source of measurements: ChEMBL document CHEMBL1138515

For each entry below, report its clearance value.
- METHOD_DESCRIPTION: Clearance in Sprague-Dawley rat at 5 mg/kg, iv
- Type: ADME, organism-based
- Design: dose 5 mg/kg, route intravenous
- COND: in vivo
Give bare numbers, in L/h/kg.

Previously resolved entries follow.
{"COMPOUND": "Cc1cccc(C)c1CN[C@]1(CCC(C)(C)C)C(=O)C(C2=NS(=O)(=O)c3cc(NS(C)(=O)=O)ccc3N2)=C(O)c2ccccc21", "REPORTED_ENDPOINT": "clearance", "VAL": 0.7}
{"COMPOUND": "CC(C)(C)CCC1(NCc2ccc3ccccc3c2)C(=O)C(C2=NS(=O)(=O)c3cc(NS(C)(=O)=O)ccc3N2)=C(O)c2ccccc21 (stereo unspecified)", "REPORTED_ENDPOINT": "clearance", "VAL": 1.4}
{"COMPOUND": "CON[C@]1(CCC(C)C)C(=O)C(C2=NS(=O)(=O)c3cc(NS(C)(=O)=O)ccc3N2)=C(O)c2ccccc21", "REPORTED_ENDPOINT": "clearance", "VAL": 2.7}
{"COMPOUND": "Cc1cccc(CNC2(CCC(C)(C)C)C(=O)C(C3=NS(=O)(=O)c4cc(NS(C)(=O)=O)ccc4N3)=C(O)c3ccccc32)n1 (stereo unspecified)", "REPORTED_ENDPOINT": "clearance", "VAL": 1.7}
{"COMPOUND": "CC(C)(C)CCC1(NCc2ccccc2N)C(=O)C(C2=NS(=O)(=O)c3cc(NS(C)(=O)=O)ccc3N2)=C(O)c2ccccc21 (stereo unspecified)", "REPORTED_ENDPOINT": "clearance", "VAL": 1.2}

Okay, here is my list. What is clearance for each of these?
1. Cc1ccc(CNC2(CCC(C)(C)C)C(=O)C(C3=NS(=O)(=O)c4cc(NS(C)(=O)=O)ccc4N3)=C(O)c3ccccc32)cn1 (stereo unspecified)
2. CC(C)CC[C@@]1(NCc2ccccc2)C(=O)C(C2=NS(=O)(=O)c3cc(NS(C)(=O)=O)ccc3N2)=C(O)c2ccccc21
3. COc1ccccc1CNC1(CCC(C)(C)C)C(=O)C(C2=NS(=O)(=O)c3cc(NS(C)(=O)=O)ccc3N2)=C(O)c2ccccc21 (stereo unspecified)
4. CC(C)CC[C@@]1(NS(C)(=O)=O)C(=O)C(C2=NS(=O)(=O)c3cc(NS(C)(=O)=O)ccc3N2)=C(O)c2ccccc21
5. Cc1cccc(C)c1CNC1(CCC(C)(C)C)C(=O)C(C2=NS(=O)(=O)c3cc(NS(C)(=O)=O)ccc3N2)=C(O)c2ccccc21 (stereo unspecified)
6. CC(C)CC[C@@]1(N)C(=O)C(C2=NS(=O)(=O)c3cc(NS(C)(=O)=O)ccc3N2)=C(O)c2ccccc21

OUT:
1: 5.9; 2: 1.16; 3: 1.5; 4: 4.3; 5: 0.78; 6: 2.12
